system: L. donovani axenic, strain MHOM-ET-67/L82 amastigotes; test: In vitro activity against L. donovani axenic amastigotes; assay type: cell-based, Leishmania donovani; conditions: ratio IC50 in L6 cells/IC50 in L. donovani
reportedMetric: SI (L.d.)
Give bare numbers.

Look over these answered cases.
> print(dat)
                                   compound                             assayedsystem  reportedmetric  endpointvalue
1  O=C(COc1ccc(-c2ccccc2)cc1)Nc1ncc([N+](=O)[O-])s1 [Compound 11]  L. donovani axenic, strain MHOM-ET-67/L82 amastigotes       SI (L.d.)            5.2
2  Cc1ccc(N2CCN(CC(=O)Nc3ncc([N+](=O)[O-])s3)CC2)cc1 [Compound 2]  L. donovani axenic, strain MHOM-ET-67/L82 amastigotes       SI (L.d.)              3
3  O=C(COc1cccc(-c2ccccc2)c1)Nc1ncc([N+](=O)[O-])s1 [Compound 9]  L. donovani axenic, strain MHOM-ET-67/L82 amastigotes       SI (L.d.)             12
4  O=C(COc1cccc(Oc2ccccc2)c1)Nc1ncc([N+](=O)[O-])s1 [Compound 10]  L. donovani axenic, strain MHOM-ET-67/L82 amastigotes       SI (L.d.)             10
5  COc1ccc(N2CCN(CC(=O)Nc3ncc([N+](=O)[O-])s3)CC2)cc1 [Compound 4]  L. donovani axenic, strain MHOM-ET-67/L82 amastigotes       SI (L.d.)            2.1

Parameters: items (list). Returns: SI (L.d.) for each item.
1. O=C(CN1CCN(c2ccc(C(F)(F)F)cc2)CC1)Nc1ncc([N+](=O)[O-])s1 [Compound 3]
2. O=C(CN1CCN(c2ccc(Cl)c(Cl)c2)CC1)Nc1ncc([N+](=O)[O-])s1 [Compound 5]
3. O=C(CN1CCN(C(c2ccccc2)c2ccc(Cl)cc2)CC1)Nc1ncc([N+](=O)[O-])s1 (stereo not shown) [Compound 6]

Outgoing:
1. 3.7
2. 6.1
3. 3.8
